- System: genotype 1b (Con-1) HCV replicon in Huh-7 cells
- run.description: HCV replicon luciferase assay
- Format: cell-based
- condition.label: Hepatitis C virus, Huh-7, 72 h, 1b replicon, Huh-7, Renilla luciferase, 3 days incubation
Just a reminder that ties go to 0 (no): only EC50 strictly below 20 nM counts as 1 (yes).

# example entries with known answers
[Q] I wonder whether CCOc1cc2oc(-c3ccc(F)cc3)c(C(=O)NC)c2cc1-c1ccc(OC)c(C(=O)NC2(c3ncccn3)CC(OC(F)F)C2)c1 (single isomer, unassigned) [Example 66a] has EC50 below 20 nM. Can you tell?
[A] 1 (yes)

[Q] I wonder whether CNC(=O)c1c(-c2ccc(F)cc2)oc2cc(CCC(F)(F)F)c(-c3cccc(C(=O)NC4(C)CC(OC(F)F)C4)c3)cc12 (single isomer, unassigned) [Example 59a] has EC50 below 20 nM. Can you tell?
[A] 0 (no)

[Q] I wonder whether CNC(=O)c1c(-c2ccc(F)cc2)oc2cc(CCC(F)(F)F)c(-c3ccc(F)c(C(=O)NC4(c5ncccn5)CC(OC(F)F)C4)c3)cc12 (stereo not shown) has EC50 below 20 nM. Can you tell?
[A] 1 (yes)

[Q] I wonder whether CCN(c1cc2oc(-c3ccc(F)cc3)c(C(=O)NC)c2cc1-c1cccc(C(=O)NC2(c3ncccn3)CC(OC(F)F)C2)c1)S(C)(=O)=O (stereo not shown) has EC50 below 20 nM. Can you tell?
[A] 1 (yes)

[Q] I wonder whether CNC(=O)c1c(-c2ccc(F)cc2)oc2cc(CCC(F)(F)F)c(-c3cc(C(=O)NC4(c5ncccn5)CC(OC(F)(F)F)C4)c(OC)cc3C)cc12 (single isomer, unassigned) [Example 46a] has EC50 below 20 nM. Can you tell?
[A] 0 (no)

Others:
[Q] I wonder whether CCCc1cc2oc(-c3ccc(F)cc3)c(C(=O)NC)c2cc1-c1ccc(OC)c(C(=O)NC2(c3ncccn3)CC(OC(F)F)C2)c1 (stereo not shown) has EC50 below 20 nM. Can you tell?
[A] 1 (yes)

[Q] I wonder whether CNC(=O)c1c(-c2ccc(F)cc2)oc2ccc(-c3cc(C(=O)NC4(c5ncccn5)CC(F)C4)cc(F)c3C)c(F)c12 (stereo not shown) has EC50 below 20 nM. Can you tell?
[A] 1 (yes)

[Q] I wonder whether CCCc1cc2oc(-c3ccc(F)cc3)c(C(=O)NC)c2cc1-c1cccc(C(=O)NC2(c3ncccn3)CC(OC(F)(F)F)C2)c1 (stereo not shown) has EC50 below 20 nM. Can you tell?
[A] 1 (yes)

[Q] I wonder whether CNC(=O)c1c(-c2ccc(F)cc2)oc2cc(CCC(F)(F)F)c(-c3ccc(OC)c(C(=O)NC4(c5ncccn5)CC(OC(F)(F)F)C4)c3)cc12 (single isomer, unassigned) [Example 47a] has EC50 below 20 nM. Can you tell?
[A] 1 (yes)

[Q] I wonder whether "CNC(=O)c1c(-c2ccc(F)cc2)oc2ccc(-c3cc(C(=O)NC4(c5ncccn5)CC(OC)(OC)C4)ccc3C)c(F)c12" has EC50 below 20 nM. Can you tell?
[A] 0 (no)

[Q] I wonder whether CCOc1cc2oc(-c3ccc(F)cc3)c(C(=O)NC)c2cc1-c1cccc(C(=O)NC2(c3ncon3)CC(OC(F)F)C2)c1 (stereo not shown) has EC50 below 20 nM. Can you tell?
[A] 1 (yes)

[Q] I wonder whether CCN(c1cc2oc(-c3ccc(F)cc3)c(C(=O)NC)c2c(F)c1-c1cccc(C(=O)NC2(c3ncccn3)CC(F)C2)c1)S(C)(=O)=O (stereo not shown) has EC50 below 20 nM. Can you tell?
[A] 1 (yes)

Reference source: patent US11161837B2
